Kindly state GI50 for each of the entries shown.
- System: U-251
- testDescription: NCI tumour cell line growth inhibition, 48 h
Active and inactive are the calls of the source. Rule as the data show it: active = GI50 up to about 1.1 µM and inactive = higher. Where a SMILES comes first, the peptide text is derived from it. The star is where a group is joined. Boc = CC(C)(C)OC(=O)*; OBn = c1ccc(CO*)cc1

Guide cases for GI50, answers given:
# molecule, GI50
measured = [
    ("C/C(=N\\NC(N)=S)c1ccc(C)cc1C", "> 100 µM (inactive)"),
    ("C=C(C)C(O)CCC1(C)C=Cc2c(c(C)cc3c2[nH]c2ccccc23)O1 (stereo not given)", "5.01 µM (inactive)"),
    ("C#Cc1ccccc1N1C(=O)C=CC1=O", "> 100 µM (inactive)"),
]

Need GI50 for each of these molecules.
1. CC(C)CC(NC(=O)OC(C)(C)C)C(=O)N1CCCC1C(=O)OCc1ccccc1 (stereo not drawn) (Boc-Leu-Pro-OBn; configuration not given here)
2. CCCC1=C(OC)C(=O)c2c(C)cc(Cl)nc2C1=O
3. O=c1c2cc([N+](=O)[O-])ccc2n2n1Cc1ccccc1CC2
4. CC(C)Oc1ccc2c(c1)OCC1Cc3ccccc3OC21 (stereo not given)
5. O=C(O)CCc1c2ccc(=O)c(O)c-2oc2c(O)c(O)ccc12

Marked response:
1: > 100 µM (inactive); 2: 6.07 µM (inactive); 3: > 100 µM (inactive); 4: > 100 µM (inactive); 5: 30.1 µM (inactive)

Need GI50 for each of these molecules.
1. N#Cc1c(Cl)c2ccccc2n2c1nc1ccccc12
2. N#CC(C#N)=C/C=C/c1c(Cl)cccc1Cl

Marked response:
1: 92.7 µM (inactive); 2: 1.81 µM (inactive)

---

- Tested on: UO-31
- testDescription: NCI tumour cell line growth inhibition, 48 h
Activity calls are given as the source filed them. Cut-off read from the data, not from the text of the source: active = GI50 up to about 1.1 µM and inactive = higher.
readoutName: GI50

# compound, studyTarget, GI50
measured = [
    ("C=C1C(=O)OC2CCN3CC=C(COC(=O)C(C)(O)C4(CO4)C1C)C23 (stereo not given)", "UO-31", "> 100 µM (inactive)"),
    ("Cc1c(-c2ccccc2)oc(=O)c2ccccc12", "UO-31", "19 µM (inactive)"),
    ("O=C1C/C(Br)=C\\c2ccccc2-c2ccccc21", "UO-31", "2.4 µM (inactive)"),
    ("c1ccc([P+](Cc2ccccc2C[P+](c2ccccc2)(c2ccccc2)c2ccccc2)(c2ccccc2)c2ccccc2)cc1", "UO-31", "> 100 µM (inactive)"),
    ("CCOC(=O)N1c2ccccc2C(C)=CC(C)C1C (stereo not given)", "UO-31", "55.7 µM (inactive)"),
    ("O=C1C=C2CCCC2C(C(=O)O)(C(=O)O)C1 (stereo not given)", "UO-31", "> 100 µM (inactive)"),
]

Need GI50 for each of these compounds.
1. Cc1ccc(C2=NO[C@@H]3C(=O)N(c4ccc(Cc5ccc(N6C(=O)[C@H]7C(c8ccc(C)cc8)=NO[C@H]7C6=O)cc5)cc4)C(=O)[C@H]23)cc1
2. O/N=C(\c1ccccc1)N1CCCCC1
3. CCOC(=O)N(c1ccccc1)c1cc(=O)n2ccccc2n1
4. CN1CCN(c2nc(N)c(Br)c(Cl)n2)CC1

Marked response:
["> 100 µM (inactive)", "66.5 µM (inactive)", "> 100 µM (inactive)", "> 100 µM (inactive)"]
